These entries and their values trace back to the kinase profiling compilation of Christmann-Franck et al. (2016).

# study system: FLT1 (human) (UniProt P17948)
# Sequence (P17948 whole entry, looked up): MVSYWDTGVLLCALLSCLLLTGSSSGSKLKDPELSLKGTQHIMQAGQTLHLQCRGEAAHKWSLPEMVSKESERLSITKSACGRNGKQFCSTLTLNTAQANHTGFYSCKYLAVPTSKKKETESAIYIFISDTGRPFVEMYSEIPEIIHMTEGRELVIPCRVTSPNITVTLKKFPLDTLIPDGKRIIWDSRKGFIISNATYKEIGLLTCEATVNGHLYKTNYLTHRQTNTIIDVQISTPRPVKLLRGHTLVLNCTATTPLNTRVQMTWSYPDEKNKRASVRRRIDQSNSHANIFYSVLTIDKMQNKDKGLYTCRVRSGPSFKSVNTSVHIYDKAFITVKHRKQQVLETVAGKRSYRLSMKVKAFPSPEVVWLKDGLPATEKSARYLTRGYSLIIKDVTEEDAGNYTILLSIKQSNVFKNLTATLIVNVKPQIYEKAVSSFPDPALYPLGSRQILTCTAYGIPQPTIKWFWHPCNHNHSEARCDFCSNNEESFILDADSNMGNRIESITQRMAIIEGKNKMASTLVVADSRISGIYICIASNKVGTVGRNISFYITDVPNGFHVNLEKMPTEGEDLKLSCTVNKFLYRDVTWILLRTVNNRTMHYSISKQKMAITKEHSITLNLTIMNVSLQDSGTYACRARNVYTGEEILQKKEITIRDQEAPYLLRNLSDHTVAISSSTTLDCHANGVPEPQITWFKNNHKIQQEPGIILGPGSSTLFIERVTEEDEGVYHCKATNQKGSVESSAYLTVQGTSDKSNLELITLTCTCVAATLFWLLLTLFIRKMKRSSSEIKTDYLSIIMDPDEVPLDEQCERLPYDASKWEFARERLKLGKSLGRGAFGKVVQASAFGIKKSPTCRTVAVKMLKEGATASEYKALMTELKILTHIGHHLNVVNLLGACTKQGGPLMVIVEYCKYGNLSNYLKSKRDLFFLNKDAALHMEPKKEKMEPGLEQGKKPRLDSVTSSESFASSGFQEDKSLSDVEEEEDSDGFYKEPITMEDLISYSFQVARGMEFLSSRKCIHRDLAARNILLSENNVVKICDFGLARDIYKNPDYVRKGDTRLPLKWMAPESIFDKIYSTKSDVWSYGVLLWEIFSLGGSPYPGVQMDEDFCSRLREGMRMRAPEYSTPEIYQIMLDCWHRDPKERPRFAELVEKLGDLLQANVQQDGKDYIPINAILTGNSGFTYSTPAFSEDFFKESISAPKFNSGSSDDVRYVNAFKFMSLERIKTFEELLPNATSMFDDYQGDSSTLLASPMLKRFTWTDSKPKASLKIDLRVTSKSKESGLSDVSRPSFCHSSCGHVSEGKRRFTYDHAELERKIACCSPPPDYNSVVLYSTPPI
# assay explanation: radiometric filter-binding kinase assay
# test conditions: compound 0.1 µM
quantity kind: residual activity (%)

molecule: COc1cc(O)c2c(c1)[C@H]1OC1C[C@H](O)[C@H](O)C(=O)/C=C\C[C@H](C)OC2=O (some centres undefined)
unit: %
recorded number: 5
--
molecule: O=C(O)c1ccc(-c2c[nH]c3ncc(-c4ccccc4)cc23)cc1C1CCCC1
unit: %
recorded number: 98
--
molecule: CCn1c(-c2nonc2N)nc2cncc(CNC3CCNCC3)c21
unit: %
recorded number: 103
--
molecule: Cn1c(=O)c2c(ncn2C)n(C)c1=O
unit: %
recorded number: 80
--
molecule: C=CC(=O)N1CCC[C@@H](n2nc(-c3ccc(Oc4ccccc4)cc3)c3c(N)ncnc32)C1
unit: %
recorded number: 40
--
molecule: O=C(N[C@@H](COc1ccc2[nH]c(=O)[nH]c2c1)c1ccccc1)c1cccn(Cc2ccc(F)c(F)c2)c1=O
unit: %
recorded number: 106
--
molecule: NC(=O)Nc1ccc2c(c1)/C(=C/c1cc(-c3cccnc3)c[nH]1)C(=O)N2
unit: %
recorded number: 7
--
molecule: O=C(Nc1ccccc1-c1cn2c(CN3CCNCC3)csc2n1)c1cnc2ccccc2n1
unit: %
recorded number: 90

(P) O=C(Nc1nc2cc(C(F)(F)F)cc(NC3CC3)n2n1)c1cccnc1
(Q) CN(C)C/C=C/C(=O)Nc1cccc(C(=O)Nc2ccc(Nc3nccc(-c4cccnc4)n3)cc2)c1
Query: Which entry has a larger number for residual activity, P or Q ? Indicate which entry you chose by stating its label.
Response: P
